- System: Rattus norvegicus
- PROTOCOL DESCRIPTION: Antihyperlipidemic activity in high fat diet-induced hyperlipidemic Sprague-Dawley rat assessed as blood LDL level at 250 mg/kg, po after 7 days (reference value: 75.5 +/- 1.24 mg/dl)
- Assay type: functional
MEASUREMENT LABEL: Activity

Worked examples, 6 molecules total:
INSERT INTO measurements (molecule, system_tested, measurement_label, recorded_value) VALUES
  ('CC(C)OC(=O)C(C)(C)Oc1ccc(C(=O)c2ccc(Cl)cc2)cc1 [FENOFIBRATE]', 'Rattus norvegicus', 'Activity', '55.33 mg/dL'),
  ('CC(C)(Oc1ccc(-c2csc(NC(=O)CCl)n2)cc1)C(=O)O', 'Rattus norvegicus', 'Activity', '59.53 mg/dL'),
  ('CC(C)(Oc1ccc(-c2csc(NC(=O)C(=O)Cl)n2)cc1)C(=O)O', 'Rattus norvegicus', 'Activity', '49.35 mg/dL'),
  ('CC(C)(Oc1ccc(-c2csc(NCC(=O)c3ccc(Cl)cc3)n2)cc1)C(=O)O', 'Rattus norvegicus', 'Activity', '61.18 mg/dL'),
  ('CC(C)(Oc1ccc(-c2csc(NC(=O)CC(=O)Cl)n2)cc1)C(=O)O', 'Rattus norvegicus', 'Activity', '67.75 mg/dL'),
  ('CC(=O)Nc1nc(-c2ccc(OC(C)(C)C(=O)O)cc2)cs1', 'Rattus norvegicus', 'Activity', '60.63 mg/dL');

Proceeding to the next molecule to report its Activity.
Prompt: Query: Activity; subject: CC(C)(Oc1ccc(-c2csc(NC(=O)c3ccccc3)n2)cc1)C(=O)O
Completion: 43.67 mg/dL
